Entries and their measured PBM binding z-score follow.
test system: RXRa DBDmut IVT, anti-RXR (DBD mutation: RXRa K156A/R161A, NR concentration 90 nM); assay: PBM binding z-score (relative to random genomic background probes); higher = stronger binding; sequences stand for … in GC…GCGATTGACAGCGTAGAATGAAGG
I'd appreciate a reply containing only the number, no unit.

// known answers, use as guide
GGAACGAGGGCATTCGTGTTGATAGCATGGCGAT = 3.26
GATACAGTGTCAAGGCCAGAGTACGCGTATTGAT = 0.061
CCTCACGGGTCACTGACAGGTTATAGCATTTGGA = 1.81
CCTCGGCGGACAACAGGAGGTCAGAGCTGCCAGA = -0.404

INPUT: Query PBM binding z-score for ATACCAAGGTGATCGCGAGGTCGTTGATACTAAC
OUTPUT: 0.551

INPUT: Check the records and state PBM binding z-score for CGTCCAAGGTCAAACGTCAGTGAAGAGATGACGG
OUTPUT: 3.98

INPUT: For the sequence CCTTACGGGTCACTGACAGGTTATAGAATTTGGA , report PBM binding z-score.
OUTPUT: 1.92

----------
test system: RARg homodimer (NR concentration 270 nM); assay: PBM binding z-score (relative to random genomic background probes); higher = stronger binding; sequences stand for … in GC…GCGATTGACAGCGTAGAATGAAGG
Record 1.0 whenever PBM binding z-score is at 0.7 or higher; record 0.0 when lower.

Take a look at these entries with their results.
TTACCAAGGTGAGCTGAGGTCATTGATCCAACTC = 1.0
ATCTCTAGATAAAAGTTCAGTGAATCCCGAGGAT = 1.0
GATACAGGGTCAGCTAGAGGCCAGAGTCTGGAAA = 1.0

INPUT: State whether the measured PBM binding z-score reaches 0.7, counting equality as reaching it, for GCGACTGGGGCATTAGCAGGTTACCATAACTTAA
OUTPUT: 0.0

INPUT: // inclusive: PBM binding z-score at least 0.7? input: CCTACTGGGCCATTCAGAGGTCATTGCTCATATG
OUTPUT: 1.0

INPUT: Tell me whether PBM binding z-score is at least 0.7 here: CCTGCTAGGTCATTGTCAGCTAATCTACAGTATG
OUTPUT: 1.0

INPUT: Evaluate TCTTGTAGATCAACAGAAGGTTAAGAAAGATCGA : PBM binding z-score at minimum 0.7?
OUTPUT: 0.0

INPUT: Textbook exercise: given the entry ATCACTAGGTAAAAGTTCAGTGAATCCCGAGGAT , state whether its PBM binding z-score is greater than or equal to 0.7.
OUTPUT: 1.0

INPUT: Determine whether measured PBM binding z-score meets or exceeds 0.7 for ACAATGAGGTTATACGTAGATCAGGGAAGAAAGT
OUTPUT: 1.0

----------
tested on: PPARg:RXRa DBDmut IVT, anti-RXR (DBD mutation: RXRa K156A/R161A, NR concentration 270 nM, RXRa partner concentration 90 nM); assay: PBM binding z-score (relative to random genomic background probes); higher = stronger binding; sequences stand for … in GC…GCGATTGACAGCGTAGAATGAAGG
Decision: PBM binding z-score >= 3 yields class 1, all other cases yield class 0.

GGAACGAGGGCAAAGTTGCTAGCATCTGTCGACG = class 1
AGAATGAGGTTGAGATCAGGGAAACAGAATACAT = class 0
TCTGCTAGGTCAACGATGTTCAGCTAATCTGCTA = class 1
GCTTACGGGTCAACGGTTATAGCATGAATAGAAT = class 1
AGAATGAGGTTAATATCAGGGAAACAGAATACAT = class 0

Read the next record carefully.
INPUT: Would you say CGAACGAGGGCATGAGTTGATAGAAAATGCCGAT shows PBM binding z-score at minimum 3?
OUTPUT: class 0
